target_of_assay: Tyrosine-protein phosphatase non-receptor type 1 (Homo sapiens)
Sequence (P18031 whole entry): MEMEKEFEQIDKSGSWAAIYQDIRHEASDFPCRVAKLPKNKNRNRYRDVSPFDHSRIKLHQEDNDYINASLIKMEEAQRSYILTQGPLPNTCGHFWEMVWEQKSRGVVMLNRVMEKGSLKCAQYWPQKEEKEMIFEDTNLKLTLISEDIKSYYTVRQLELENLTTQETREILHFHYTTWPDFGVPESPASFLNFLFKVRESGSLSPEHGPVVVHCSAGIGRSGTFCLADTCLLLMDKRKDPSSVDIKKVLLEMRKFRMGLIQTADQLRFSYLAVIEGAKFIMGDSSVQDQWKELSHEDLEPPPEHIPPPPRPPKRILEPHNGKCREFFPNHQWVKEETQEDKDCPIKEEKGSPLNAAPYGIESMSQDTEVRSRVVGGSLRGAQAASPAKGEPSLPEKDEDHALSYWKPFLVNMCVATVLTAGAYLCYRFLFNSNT
assay_text: Inhibition of PTP1B (unknown origin) assessed as p-nitrophenol release from pNPP substrate after 30 mins by spectrophotometry
conditions_used: read-out: IC50
observation_type: IC50 (µM)
Enter your answer as a number in µM; do not include the unit.

Query: Identify measured IC50 associated with `COc1cc([C@H]2Oc3ccc(C(=O)O)cc3O[C@@H]2CO)ccc1O`
Result: 19.6

Query: Identify measured IC50 associated with `Oc1ccc([C@H]2OC[C@H]3[C@@H]2CO[C@H]3c2ccc(O)c(O)c2)cc1O`
Result: 21.9

Query: For the compound `COc1cc([C@H]2OC[C@H]3[C@@H]2CO[C@@H]3c2cc(OC)c(OC)c(OC)c2)cc(OC)c1OC` , give its reported IC50.
Result: 16.8

Query: Provide measured IC50 value, entry: COc1cc([C@@H]2OC[C@H]3[C@@H]2CO[C@H]3c2ccc(O)c(OC)c2)ccc1O [(-)-PINORESINOL]
Result: 18.7

Query: Fill in IC50 for record COc1cc([C@H]2OC[C@H]3[C@@H]2CO[C@@H]3c2cc(OC)c(O)c(OC)c2)cc(OC)c1O [SYRINGARESINOL]
Result: 15

Source of measurements: ChEMBL document CHEMBL3085712
